Overview of reported shrunken log2 fold change across a group of sequences:
Test system: Escherichia coli TOP10;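 note: peptides expressed intracellularly from a pBAD plasmid library in pooled LB shake-flask culture, induced with 0.3% L-arabinose, DNA abundance read by NGS, three biological replicates, DESeq2 with apeglm shrinkage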
Method: shrunken log2 fold change of peptide-encoding DNA abundance (4.5 h post-induction vs induction); higher = less antimicrobial activity (less host growth inhibition)
Assay conditions: time post-induction: 4.5 h; library: site-saturation at positions 5, 18, 19, 20

Seq text: RRIRHRPPRLPRPRPRPPDMPRP
shrunken log2 fold change: 0.0267

Seq text: RRIRWRPPRLPRPRPRPWAFPRP
shrunken log2 fold change: 0.044

Seq text: RRIRERPPRLPRPRPRPSKFPRP
shrunken log2 fold change: -0.199

Seq text: RRIRLRPPRLPRPRPRPYTCPRP
shrunken log2 fold change: -0.223

Seq text: RRIRARPPRLPRPRPRPYCWPRP
shrunken log2 fold change: -0.258

Seq text: RRIRKRPPRLPRPRPRPAVIPRP
shrunken log2 fold change: 0.076

Seq text: RRIRIRPPRLPRPRPRPEAWPRP
shrunken log2 fold change: 0.033

Seq text: RRIRMRPPRLPRPRPRPSKCPRP
shrunken log2 fold change: -0.0848

Seq text: RRIRQRPPRLPRPRPRPMKNPRP
shrunken log2 fold change: -0.124

Seq text: RRIRQRPPRLPRPRPRPNAKPRP
shrunken log2 fold change: -0.0176

Seq text: RRIRRRPPRLPRPRPRPIFGPRP
shrunken log2 fold change: 0.338

Seq text: RRIRYRPPRLPRPRPRPRCEPRP
shrunken log2 fold change: 0.076

Seq text: RRIRQRPPRLPRPRPRPQGGPRP
shrunken log2 fold change: 0.00902

Seq text: RRIRTRPPRLPRPRPRPSVHPRP
shrunken log2 fold change: -0.237

Seq text: RRIRPRPPRLPRPRPRPIRDPRP
shrunken log2 fold change: -0.015

Seq text: RRIRLRPPRLPRPRPRPAYQPRP
shrunken log2 fold change: -0.142

Seq text: RRIRERPPRLPRPRPRPTLIPRP
shrunken log2 fold change: 0.0112

Seq text: RRIRMRPPRLPRPRPRPSHEPRP
shrunken log2 fold change: 0.267

Seq text: RRIRYRPPRLPRPRPRPLQMPRP
shrunken log2 fold change: -0.209

Seq text: RRIRMRPPRLPRPRPRPNRWPRP
shrunken log2 fold change: 0.394

Seq text: RRIRNRPPRLPRPRPRPTMSPRP
shrunken log2 fold change: -0.453

Seq text: RRIRARPPRLPRPRPRPWDCPRP
shrunken log2 fold change: 0.0143

Seq text: RRIRLRPPRLPRPRPRPESSPRP
shrunken log2 fold change: -0.015

Seq text: RRIRPRPPRLPRPRPRPNMSPRP
shrunken log2 fold change: -0.485

Seq text: RRIRFRPPRLPRPRPRPDTSPRP
shrunken log2 fold change: -0.985

Seq text: RRIRTRPPRLPRPRPRPYLYPRP
shrunken log2 fold change: -0.702

Seq text: RRIRCRPPRLPRPRPRPQVQPRP
shrunken log2 fold change: 0.0244

Seq text: RRIRMRPPRLPRPRPRPECEPRP
shrunken log2 fold change: 0.206

Seq text: RRIRIRPPRLPRPRPRPHHKPRP
shrunken log2 fold change: -1.18

Seq text: RRIRGRPPRLPRPRPRPQWEPRP
shrunken log2 fold change: 0.0931

Seq text: RRIRNRPPRLPRPRPRPLAFPRP
shrunken log2 fold change: 0.0414

Seq text: RRIRDRPPRLPRPRPRPVKDPRP
shrunken log2 fold change: -0.173

Seq text: RRIRHRPPRLPRPRPRPNRNPRP
shrunken log2 fold change: -1.01

Seq text: RRIRVRPPRLPRPRPRPDCWPRP
shrunken log2 fold change: 0.135

Seq text: RRIRLRPPRLPRPRPRPLDQPRP
shrunken log2 fold change: 0.105

Seq text: RRIRWRPPRLPRPRPRPQWPPRP
shrunken log2 fold change: 0.158

Seq text: RRIRIRPPRLPRPRPRPHLCPRP
shrunken log2 fold change: 0.0475

Seq text: RRIRKRPPRLPRPRPRPIWDPRP
shrunken log2 fold change: -0.0152

Seq text: RRIRQRPPRLPRPRPRPGTYPRP
shrunken log2 fold change: 0.00894

Seq text: RRIRRRPPRLPRPRPRPKQGPRP
shrunken log2 fold change: -0.079

Seq text: RRIRYRPPRLPRPRPRPFCMPRP
shrunken log2 fold change: -0.604

Seq text: RRIRARPPRLPRPRPRPPYYPRP
shrunken log2 fold change: 0.0635

Seq text: RRIRYRPPRLPRPRPRPEKGPRP
shrunken log2 fold change: -0.00176

Seq text: RRIRHRPPRLPRPRPRPRVFPRP
shrunken log2 fold change: 0.201

Seq text: RRIRARPPRLPRPRPRPLGPPRP
shrunken log2 fold change: 0.337

Seq text: RRIRMRPPRLPRPRPRPHSIPRP
shrunken log2 fold change: 0.0955

Seq text: RRIRDRPPRLPRPRPRPLHHPRP
shrunken log2 fold change: -0.314

Seq text: RRIRARPPRLPRPRPRPQITPRP
shrunken log2 fold change: 0.118

Seq text: RRIRDRPPRLPRPRPRPGDTPRP
shrunken log2 fold change: -0.11

Seq text: RRIRERPPRLPRPRPRPDNHPRP
shrunken log2 fold change: -0.802

Seq text: RRIRHRPPRLPRPRPRPAAPPRP
shrunken log2 fold change: 0.093
